- System: COLO 205 colon
- Test Details: NCI-60 one-dose screen, 48 h (100 = growth as untreated, 0 = no growth, -100 = all killed)
- Condition Label: 10 µM unless noted
Compounds without any hit were thinned out: in the full panel of roughly 83,000, 20% have a hit. The source made the active and inactive calls. How the source made its calls: active means growth percent below 10; inactive means the rest.
Quantity Kind: growth

Some compounds with recorded growth:
| Compound | Target Or Test System | Quantity Kind | Result |
| --- | --- | --- | --- |
| CNCc1cccc2c1OCCOCCN(C)C(=O)CN(C)S(=O)(=O)c1ccc(cc1)-c1cnc(N)c(n1)C(=O)N2 | COLO 205 colon | growth | 19.9% (inactive) |
| COc1ccc(/C=C/C(=O)c2ccc(NC(=O)CSc3nnc(-c4cc(-c5ccccc5)nc5ccccc45)n3-c3ccccc3)cc2)cc1 | COLO 205 colon | growth | 110% (inactive) |
| CC(C)CN1CC(C(=O)Nc2ccc3c(c2)-c2ccccc2C3)CC1=O (centres undefined) | COLO 205 colon | growth | 87.7% [50 µM] (inactive) |
| O=C(O)c1cccc(N/C=C/C(=O)c2cc3cc(Br)ccc3oc2=O)c1 | COLO 205 colon | growth | 110% (inactive) |
| N=C(N)SCc1cccc2c(CSC(=N)N)cccc12 | COLO 205 colon | growth | 108% (inactive) |
| O=C(CCCCl)NNc1nccc(Nc2ccc(S(=O)(=O)Nc3ccncc3)cc2)n1 | COLO 205 colon | growth | 111% (inactive) |
| Nc1c(C(=O)O)cc(Cl)cc1[N+](=O)[O-] | COLO 205 colon | growth | 115% (inactive) |
| COc1cccc(C(=O)OCC(O)C(=O)NC23CC4CC(CC(C4)C2)C3)c1 (centres undefined) | COLO 205 colon | growth | 111% (inactive) |

Enquiry: growth lookup needed for "Cc1cc(F)ccc1S(=O)(=O)Nc1cc(-c2c(O)ccc3ccccc23)c(O)c2ccccc12" , thanks.
Return: 14.3% (inactive)

Enquiry: Please give the measured growth for this compound: "Cn1cc(-c2ccc3cc(-c4ccc(CC(=O)Nc5cc(C(C)(C)C)on5)cc4)cnc3c2)cn1"
Return: 35.3% (inactive)

Enquiry: Query: growth; subject: "Cn1cc(-c2nn3cc(-c4ccccc4)nc3s2)c2ccccc21"
Return: 73.7% (inactive)

Enquiry: What does the data say about its growth? Entry: "Cc1ccc(C(=O)c2ccc(CC(=O)N/N=C/c3ccc(O)cc3O)n2C)cc1"
Return: 41.8% (inactive)

Enquiry: Report growth for "O=C1NC(=O)c2c1c1c3ccccc3[nH]c1c1oc3cc(Br)ccc3c21" please.
Return: 72.3% (inactive)

Enquiry: For "COc1cc2ncnc(Nc3ccc(F)c(Cl)c3)c2cc1OCC(=O)N1CCN(c2ccc(F)cc2)CC1" , what is its reported growth?
Return: 101% (inactive)

Enquiry: # query: growth of entry "C=CCN=C(N)SCCCCCCSC(N)=NCC=C"
Return: 86.4% (inactive)

Enquiry: What does the record list as growth for "N#C/C(=C\c1ccc(Cl)cc1Cl)C(=O)Nc1ncc(Cc2ccc(Cl)c(Cl)c2)s1" ?
Return: 112% (inactive)

Enquiry: Record request: growth value, item "C=CC(=O)N1CCN(c2ccc3cccc(NC(=O)c4cnc(C)cn4)c3n2)CC1"
Return: 59.3% (inactive)

Enquiry: Using the record for "N#Cc1c(-c2cccc([N+](=O)[O-])c2)cc(-c2ccc(Nc3nc(Nc4ccc(F)cc4)nc(Nc4ccc(F)cc4)n3)cc2)nc1N" , report its growth.
Return: 117% (inactive)

Enquiry: Fill blank: measured growth of the compound "C=C1C(=O)O[C@H]2[C@H]1CC/C(COC(=O)c1cc3cc(F)ccc3[nH]1)=C\CC[C@@]1(C)O[C@@H]21" is ____.
Return: -68.7% (active)
